Test system: HCI09 (cells of a triple-negative luminal androgen receptor type breast cancer xenograft);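 note: PDX cells carrying CMV promoter-driven luciferase, viability read as total photon flux per second by IVIS imaging following D-luciferin, vehicle control 0.1% DMSO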
test: cell viability (% of vehicle); higher = less cytotoxic
conditions.used: 10 µM; 72 h
Where a name gives a salt, the structure may show the parent alone.
measured.metric: cell viability

* CN[C@H](CC(C)C)C(=O)N[C@H]1C(=O)N[C@@H](CC(N)=O)C(=O)N[C@H]2C(=O)N[C@H]3C(=O)N[C@H](C(=O)N[C@H](C(=O)O)c4cc(O)cc(O)c4-c4cc3ccc4O)[C@H](O)c3ccc(c(Cl)c3)Oc3cc2cc(c3O[C@@H]2O[C@H](CO)[C@@H](O)[C@H](O)[C@H]2O[C@H]2C[C@](C)(N)[C@H](O)[C@H](C)O2)Oc2ccc(cc2Cl)[C@H]1O [Vancomycin hydrochloride] | 146
* CC(C)(C)C(=O)OCOP(=O)(COCCn1cnc2c(N)ncnc21)OCOC(=O)C(C)(C)C [Adefovir Dipivoxil] | 62.7

Origin of the recorded values: the supplement of paper PMC6992640
